Molecular target: Thromboxane-A synthase (Oryctolagus cuniculus)
Assay: Inhibitory activity against Thromboxane synthetase
pIC50: −log10 of the molar value.
Parameter: pIC50

Solved entries:
>>> df
                                   compound  parameter  endpoint_result
0          C/C(=C\c1ccc(Cc2cccnc2)s1)C(=O)O      pIC50             7.92
1                     O=C(O)CCCCCCCc1cccnc1      pIC50             7.12
2         C/C(=C\C(=O)O)c1ccc(Cc2cccnc2)cc1      pIC50             7.25
3  C/C(=C\c1ccc(C(C)c2cccnc2)cc1)C(=O)O (stereo not drawn)      pIC50             7.60

I: C/C(=C\c1ccc(Cn2ccnc2)cc1)C(=O)O
II: CC/C(=C\c1ccc(Cc2cccnc2)cc1)C(=O)O
Which of these two has the smaller recorded pIC50: I or II ? Please respond with the label that marks your chosen entry. II

A: O=C(O)/C(Br)=C/c1ccc(Cc2cccnc2)cc1
B: CC(Cc1ccc(Cc2cccnc2)cc1)C(=O)O (stereo not drawn)
// select label with min value of measured pIC50 from [ A , B ] Reply with the label of the item you choose. B
